biological target: novel L-glutamic acid oxidase (Streptomyces sp, UniProt Q8L3C7); assay: Effects of various additives on the activity of the novel enzyme; format: biochemical, Streptomyces sp. X-119-6; set-up: from the cultured product of an actinomycete newly isolated from a soil sample; made in house; host or cells: cultured product of the natural (non-recombinant) actinomycete strain, purified; conditions: additive 1 mM, pH 7.4, no addition = 100; read-out: Relative activity
Structures can show the parent of a compound that is named as a salt.
Recorded activity at 1000 µM by entry
# value in %; strip the unit string

Answered cases to consult:
MOLECULE | MEASURE_NAME | DISPLAY_UNIT | RECORDED_NUMBER
c1ccc(-c2ccccn2)nc1 [α,α'-dipyridyl] | activity at 1000 µM | % | 94.4
CCN1C(=O)C=CC1=O [NEM, N--ethylmaleimide] | activity at 1000 µM | % | 94.4
c1cnc2c(c1)ccc1cccnc12 [o-phenanthroline] | activity at 1000 µM | % | 97.8
CCN(CC)C(=S)S [DDTC, diethyldithiocarbamate] | activity at 1000 µM | % | 101

# context switch: different molecule, same activity at 1000 µM
Problem: Which measured activity at 1000 µM value corresponds to O=S(=O)(O)c1cc(O)c(O)c(S(=O)(=O)O)c1 [Tiron, disodium salt] ?
Result: 101

---

Recorded Relative activity by entry
Target: novel L-glutamic acid oxidase (Streptomyces sp, UniProt Q8L3C7)
Sequence (Q8L3C7 15-390 limits assumed): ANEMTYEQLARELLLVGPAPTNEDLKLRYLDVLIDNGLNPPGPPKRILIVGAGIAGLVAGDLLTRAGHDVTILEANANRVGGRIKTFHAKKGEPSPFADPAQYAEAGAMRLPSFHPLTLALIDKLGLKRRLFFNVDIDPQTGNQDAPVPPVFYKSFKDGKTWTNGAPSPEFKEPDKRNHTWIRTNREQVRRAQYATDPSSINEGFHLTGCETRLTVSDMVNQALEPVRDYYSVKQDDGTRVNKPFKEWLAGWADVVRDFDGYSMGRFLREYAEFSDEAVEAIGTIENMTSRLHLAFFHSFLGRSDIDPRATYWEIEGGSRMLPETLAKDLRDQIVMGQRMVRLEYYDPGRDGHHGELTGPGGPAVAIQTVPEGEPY
Sequence (Q8L3C7 391-520 limits assumed): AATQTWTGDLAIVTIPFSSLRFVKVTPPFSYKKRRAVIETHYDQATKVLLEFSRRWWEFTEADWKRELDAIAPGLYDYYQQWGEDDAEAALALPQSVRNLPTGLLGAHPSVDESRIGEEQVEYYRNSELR
Sequence (Q8L3C7 521-701 limits assumed): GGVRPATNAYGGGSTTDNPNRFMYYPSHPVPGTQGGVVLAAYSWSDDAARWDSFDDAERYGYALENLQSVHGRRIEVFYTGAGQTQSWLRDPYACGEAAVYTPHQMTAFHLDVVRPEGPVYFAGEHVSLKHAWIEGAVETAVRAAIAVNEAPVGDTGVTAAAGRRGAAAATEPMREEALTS
Assay: Effects of various additives on the activity of the novel enzyme
Type: biochemical, Streptomyces sp. X-119-6
Set-up: from the cultured product of an actinomycete newly isolated from a soil sample; made in house; host or cells: cultured product of the natural (non-recombinant) actinomycete strain, purified
Conditions: additive 1 mM, pH 7.4, no addition = 100
Give only the figure.

COMPOUND | Relative activity
O=S(=O)([O-])[O-].[Li+].[Li+] [Li2 SO4] | 93.8

Problem: Which measured Relative activity value corresponds to [Cl-].[K+] [KCl] ?
Result: 111.1

Problem: Which measured Relative activity value corresponds to [Ca+2].[Cl-].[Cl-] [CaCl2] ?
Result: 100.0

Problem: Which measured Relative activity value corresponds to O=S(=O)([O-])[O-].O=S(=O)([O-])[O-].O=S(=O)([O-])[O-].[Al+3].[Al+3] [Al2 (SO4)3] ?
Result: 93.8

Problem: Which measured Relative activity value corresponds to [I-].[K+] [KI] ?
Result: 100.7

Problem: Which measured Relative activity value corresponds to O=S(=O)([O-])[O-].[Mn+2] [MnSO4] ?
Result: 102.1

Problem: Which measured Relative activity value corresponds to [N-]=[N+]=[N-].[Na+] [NaN3] ?
Result: 100.6

---

molecular target: novel L-glutamic acid oxidase (Streptomyces sp); assay: Substrate specificity of the novel enzyme, oxygen electrode method; details: pH 7.4, read-out: Relative Activity (%) pH 7.4
MEASURE_NAME: activity at 10000 µM

Answered cases to consult:
COMPOUND_STRUCTURE | activity at 10000 µM
NC(=O)C[C@H](N)C(=O)O | < 0.1%
C[C@@H](O)[C@H](N)C(=O)O | < 0.1%
N[C@@H](Cc1ccccc1)C(=O)O | < 0.1%
N[C@@H](CCC(=O)O)C(=O)O | 100%

# context switch: different molecule, same activity at 10000 µM
Problem: Which measured activity at 10000 µM value corresponds to `N[C@@H](Cc1c[nH]cn1)C(=O)O` ?
Result: < 0.1%

// data source = patent US4614714A
